Tested on: PXR:RXRa (NR concentration 270 nM, RXRa partner concentration 90 nM)
Experiment: PBM binding z-score (relative to random genomic background probes); higher = stronger binding; sequences stand for … in GC…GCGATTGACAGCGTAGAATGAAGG
measureName: PBM binding z-score
I only need the number, thanks.

Would you please look over these solved cases?
seqString: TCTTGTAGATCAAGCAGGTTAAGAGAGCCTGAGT
readoutNumber: 0.103

seqString: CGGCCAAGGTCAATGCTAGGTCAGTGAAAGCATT
readoutNumber: 4.73

seqString: TCTAGATGGTCAAAGGTCACACACTCGAAATGCG
readoutNumber: 6.1

seqString: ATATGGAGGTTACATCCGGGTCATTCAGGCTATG
readoutNumber: 4.57

seqString: CTCGAAAGGTCGTGCTCAGCTGAGTATACCAAAC
readoutNumber: 2.99

-- ask Param readout= PBM binding z-score; system= PXR:RXRa (NR concentration 270 nM, RXRa partner concentration 90 nM); entry= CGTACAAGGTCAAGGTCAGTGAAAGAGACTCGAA ; returns value.
-- reply 5.27

-- ask Quick one: CAGCCTAGGGCAGGGCCAGTATAGGAGGAACGTT
-- reply -1.13

* * *

System: LXRb homodimer (NR concentration 270 nM)
Experiment: PBM binding z-score (relative to random genomic background probes); higher = stronger binding; sequences stand for … in GC…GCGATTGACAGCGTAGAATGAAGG
Consider the reported PBM binding z-score of an entry and match it to a band in lowest = under -0.4, middle = from -0.4 up to 0.5, highest = 0.5 and over

seqString: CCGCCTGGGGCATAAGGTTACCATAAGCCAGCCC
targetDesc: LXRb homodimer (NR concentration 270 nM)
categoryLabel: lowest

-- ask Textbook exercise: identify the category of the sequence given here, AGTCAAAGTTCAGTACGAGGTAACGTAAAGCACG , according to its measured value.
-- reply highest

-- ask Quick one: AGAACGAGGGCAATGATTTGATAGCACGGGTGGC
-- reply lowest

-- ask Quick one: TCTGGTAGATCAATAGAGGTTAAGAAAGTGCGCT
-- reply middle

* * *

System: RARg:RXRa (NR concentration 270 nM, RXRa partner concentration 90 nM)
Assay: PBM binding z-score (relative to random genomic background probes); higher = stronger binding; sequences stand for … in GC…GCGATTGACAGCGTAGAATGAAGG
A collection of sequences and their measured PBM binding z-score
I only need the number, thanks.

-- ask Query: PBM binding z-score; subject: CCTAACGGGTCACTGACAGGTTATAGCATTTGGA
-- reply 5.4

* * *

Tested on: RARg:RXRa (NR concentration 270 nM, RXRa partner concentration 90 nM)
Assay: PBM binding z-score (relative to random genomic background probes); higher = stronger binding; sequences stand for … in GC…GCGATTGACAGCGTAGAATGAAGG
A collection of sequences and their measured PBM binding z-score
I only need the number, thanks.

Would you please look over these solved cases?
seqString: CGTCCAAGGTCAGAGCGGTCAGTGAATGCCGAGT
targetDesc: RARg:RXRa (NR concentration 270 nM, RXRa partner concentration 90 nM)
PBM binding z-score: 5.22
--
seqString: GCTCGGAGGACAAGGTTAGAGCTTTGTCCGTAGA
targetDesc: RARg:RXRa (NR concentration 270 nM, RXRa partner concentration 90 nM)
PBM binding z-score: 0.376
--
seqString: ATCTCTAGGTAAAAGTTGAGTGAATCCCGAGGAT
targetDesc: RARg:RXRa (NR concentration 270 nM, RXRa partner concentration 90 nM)
PBM binding z-score: 0.517
--
seqString: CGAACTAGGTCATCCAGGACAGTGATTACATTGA
targetDesc: RARg:RXRa (NR concentration 270 nM, RXRa partner concentration 90 nM)
PBM binding z-score: 4.03
--
seqString: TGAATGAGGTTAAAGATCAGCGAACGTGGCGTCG
targetDesc: RARg:RXRa (NR concentration 270 nM, RXRa partner concentration 90 nM)
PBM binding z-score: 2.34
--
seqString: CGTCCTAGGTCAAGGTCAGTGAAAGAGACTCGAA
targetDesc: RARg:RXRa (NR concentration 270 nM, RXRa partner concentration 90 nM)
PBM binding z-score: 5.41
--
seqString: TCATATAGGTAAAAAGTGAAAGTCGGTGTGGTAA
targetDesc: RARg:RXRa (NR concentration 270 nM, RXRa partner concentration 90 nM)
PBM binding z-score: 0.226
--
seqString: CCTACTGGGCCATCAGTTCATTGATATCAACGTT
targetDesc: RARg:RXRa (NR concentration 270 nM, RXRa partner concentration 90 nM)
PBM binding z-score: 0.31
--
seqString: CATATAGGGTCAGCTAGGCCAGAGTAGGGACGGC
targetDesc: RARg:RXRa (NR concentration 270 nM, RXRa partner concentration 90 nM)
PBM binding z-score: 4.41
--
seqString: CCTAGTTGATCAGGAGGTCACACACCGGATATGA
targetDesc: RARg:RXRa (NR concentration 270 nM, RXRa partner concentration 90 nM)
PBM binding z-score: 4.82

-- ask Query: PBM binding z-score; subject: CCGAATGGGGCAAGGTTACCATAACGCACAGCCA
-- reply 1.05

-- ask Quick one: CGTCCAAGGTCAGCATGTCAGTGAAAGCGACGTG
-- reply 5.21
